Provide the reported Ki of each item.
- TESTED_TARGET: Human 5-HT6 Receptor (Homo sapiens, UniProt P50406)
- Construct: expressed in transfected cells; host or cells: HEK293
- Sequence (P50406 whole entry): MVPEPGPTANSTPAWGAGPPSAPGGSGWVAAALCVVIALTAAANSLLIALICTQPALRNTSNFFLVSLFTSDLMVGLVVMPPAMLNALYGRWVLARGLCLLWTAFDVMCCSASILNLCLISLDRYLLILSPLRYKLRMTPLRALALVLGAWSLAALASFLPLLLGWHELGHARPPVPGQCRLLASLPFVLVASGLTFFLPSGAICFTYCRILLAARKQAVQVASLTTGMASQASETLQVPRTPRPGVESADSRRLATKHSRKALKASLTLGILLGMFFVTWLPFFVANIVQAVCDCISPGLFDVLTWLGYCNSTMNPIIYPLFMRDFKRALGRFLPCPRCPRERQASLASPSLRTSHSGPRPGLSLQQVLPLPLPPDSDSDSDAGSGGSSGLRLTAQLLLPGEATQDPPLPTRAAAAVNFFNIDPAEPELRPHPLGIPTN
- EXPERIMENTAL_DETAILS: Binding assay for human 5-HT6 receptor ([3H]LSD radioligand)
- MEASUREMENT_CONDITIONS: human recombinant receptor in HEK293 cells, [3H]LSD 1.5 nM, 60 minutes at 37° C.; read-out: Radio-ligand binding data at 5-HT6 (h) Ki
Counter-ions that a name gives are not always drawn.
The answer consists of two parts: a number and, after it, its unit.

Record excerpt, results attached:
CN1CCN(Cc2ccc3c(ccn3S(=O)(=O)c3ccc(Cl)cc3)c2)CC1 ... 3.02 nM
Cl.Cl.O=S(=O)(c1ccc(F)cc1)n1cc(Cl)c2cc(CN3CCNCC3)ccc21 [Compound 30, dihydrochloride] ... 2.58 nM
CN1CCN(Cc2ccc3c(ccn3S(=O)(=O)c3ccccc3Br)c2)CC1 ... 8.3 nM
CN1CCN(Cc2ccc3c(ccn3S(=O)(=O)c3ccccc3)c2)CC1.Cl.Cl [Compound 1, dihydrochloride] ... 3.83 nM
CN1CCN(Cc2ccc3c(c2)c(Cl)cn3S(=O)(=O)c2ccc(F)cc2)CC1 ... 2.97 nM

Items follow; give Ki for each.
1. CCN1CCN(Cc2ccc3c(ccn3S(=O)(=O)c3ccc(F)cc3)c2)CC1.Cl.Cl [Compound 7, dihydrochloride]
2. CCN1CCN(Cc2ccc3c(ccn3S(=O)(=O)c3ccccc3Br)c2)CC1.Cl.Cl [Compound 15, dihydrochloride]
3. CC(C)Oc1c(CN2CCN(C)CC2)ccc2c1ccn2S(=O)(=O)c1ccc(F)cc1
4. Cl.Cl.O=S(=O)(c1ccccc1Br)n1ccc2cc(CN3CCNCC3)ccc21 [Compound 31, dihydrochloride]
5. CN1CCN(Cc2ccc3c(c2)c(Cl)cn3S(=O)(=O)c2cc(C(F)(F)F)ccc2Cl)CC1 [Compound 27, dihydrochloride]
6. CN1CCN(Cc2ccc3c(ccn3S(=O)(=O)c3ccc(F)cc3)c2)CC1

1: 3.21 nM; 2: 2.56 nM; 3: 276 nM; 4: 7.77 nM; 5: 4.16 nM; 6: 14.6 nM
